valueType: melting point

CC(C)[C@@H]1CC[C@@H](C)C[C@@]1(O)CO	48 to 50 °C
CC(C)[C@@H]1CC[C@@H](C)C[C@]1(O)CCO	84 to 86 °C
CC(C)[C@@H]1CC[C@@H](C)C[C@@]1(O)CCO	80 to 82 °C

Ask | Requested field: melting point. Item: `CC(C)[C@@H]1CC[C@@H](C)C[C@]1(O)CO`
Reply | 80 to 82 °C

* * *

Experiment: organoleptic evaluation of the compounds: refreshing effect, bitterness, odour
Assay type: in vivo
Conditions: sensation of freshness, intensity in words
valueType: refreshing effect

CC(C)[C@@H]1CC[C@@H](C)C[C@@]1(O)C(C)CO (some centres unmarked)	reduced intensity
CC(C)[C@@H]1CC[C@@H](C)C[C@@]1(O)CC(C)(C)O	reduced intensity
CC(O)C[C@]1(O)C[C@H](C)CC[C@H]1C(C)C (some centres unmarked)	reduced intensity

src = patent US7816566B2
